method-summary: PSAC antagonists in infected red cells, primary screen, cell-based, P. falciparum Indochina, OD700, 2 h (AID 1155);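 note: lysis reports solute entry through the parasite surface anion channel PSAC; channel blockers reduce lysis of infected cells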
condition-details: P. falciparum Indochina infected erythrocytes, osmotic lysis OD700; higher = more signal, called active from +8 up or from −8 down
Activity calls are given as the source filed them.
Recorded z-score values for a group of molecules are listed next.
property: z-score

>>> result("CCOC(=O)C=Cc1cc([N+](=O)[O-])ccc1O")
"11.8 (active)"
>>> result("O=C1c2ccccc2[C@@]2(Cc3ccccc3N(CCN3CCOCC3)C2=O)[C@H](c2ccc(CO)cc2)N1Cc1ccccc1")
"-0.273 (inactive)"
>>> result("C=C(COC)/C(=C/C[C@@H](OC(C)=O)c1ccc(OCCO)cc1)c1cc(C(=O)OC)ccc1OC")
"1.87 (inactive)"
>>> result("[N-]=[N+]=NCc1ccccc1[C@@H]1OC(c2ccc(OCCCO)cc2)=N[C@]1(CCS(=O)(=O)c1ccccc1)C(=O)NCc1ccccc1")
"2.27 (inactive)"
>>> result("COC(=O)C(CC#Cc1ccc2c(c1)[C@]1(C(=O)N2)[C@H](c2ccc(O)cc2)N2[C@H](c3ccccc3)[C@H](c3ccccc3)OC(=O)[C@H]2[C@@H]1C(=O)Nc1nc2ccccc2s1)C(=O)OC")
"-0.314 (inactive)"
>>> result("C=CCNC(=O)[C@@H]1[C@H]2C(=O)O[C@H](c3ccccc3)[C@H](c3ccccc3)N2[C@H](c2ccc(OCCO)cc2)[C@@]12C(=O)Nc1ccc(C#CCCO)cc12")
"2.11 (inactive)"
>>> result("C=C(CCCC)C(=O)CC[C@H](OC(C)=O)c1cccc(OCCO)c1")
"-1.77 (inactive)"
>>> result("OC([C@@H]1CC(c2ccccc2)=NO1)[C@H]1CC(c2ccccc2)=NO1 (stereo partly drawn)")
"9.43 (active)"
>>> result("C=CC[C@@]1(C(=O)NCc2ccccc2)N=C(c2ccc(OCCCO)cc2)O[C@@H]1c1ccccc1N=[N+]=[N-]")
"31.1 (active)"
>>> result("COCCOC(=O)N1C(=O)[C@@]2(c3cc(C#CC4=CCCCC4)ccc31)[C@H](C(N)=O)[C@H]1C(=O)O[C@H](c3ccccc3)[C@H](c3ccccc3)N1[C@@H]2c1ccc(OCCO)cc1")
"3.03 (inactive)"
>>> result("O=C1OCCC/C=C\\[C@H]2OC34C=CCN(Cn5nnc6ccccc65)C(=O)[C@H]3N(CCCCCCO)C(=O)[C@@H]4C12 (stereo partly drawn)")
"-0.392 (inactive)"
>>> result("COc1ccc([Si](C)(C)[C@H]2[C@H](CCO)O[C@@]3(C(=O)N(C)c4c(Br)cc(C)cc43)[C@@H]2C)cc1")
"1.8 (inactive)"
>>> result("COC(=O)[C@@]1(Cc2ccc(F)cc2)[C@H]2c3cc(C(=O)N(C)C)n(CC4CC4)c3C[C@H]2CN1C(=O)c1ccccc1")
"1.15 (inactive)"
>>> result("C=C(CCCC)C(=O)CC[C@H](OC(=O)c1cccnc1)c1ccccc1OCCO")
"1.6 (inactive)"
>>> result("CC(=O)N1Cc2ccccc2C[C@@]2(COC(c3ccc(OCCCO)cc3)=N2)C1=O")
"13.4 (active)"
>>> result("CCOC(=O)C[C@H]1[C@H](OC(=O)Cc2ccc3c(c2)OCO3)[C@@H](NC(=O)c2ccc(-c3ccccc3)cc2)c2cc(OCCCO)ccc2N1C(=O)c1ccc2ccccc2n1")
"0.67 (inactive)"
>>> result("COCCOC(=O)N1C(=O)[C@@]2(c3cc(C#CCCO)ccc31)[C@H](C(=O)Nc1nc3ccccc3s1)[C@H]1C(=O)O[C@H](c3ccccc3)[C@H](c3ccccc3)N1[C@@H]2c1ccc(OCCO)cc1")
"1.5 (inactive)"
>>> result("O=C1c2ccccc2[C@@]2(Cc3ccccc3N(CC(F)(F)F)C2=O)[C@H](c2ccc(CO)cc2)N1Cc1ccccc1Cl")
"0.638 (inactive)"
>>> result("O=C(NCc1ccc(F)cc1)[C@H]1C[C@H]2C(=O)N[C@@H](Cc3ccccc3)C(=O)N2[C@H]1c1ccc(O)cc1")
"0.591 (inactive)"
>>> result("CN(C)C(=O)[C@@]1(Cc2ccccc2)N=C(c2ccc(OCCCO)cc2)O[C@H]1c1ccccc1N=[N+]=[N-]")
"27.4 (active)"
>>> result("C=CCC(OC(C)=O)[C@@H]1[C@@H](N(Cc2ccc(-c3cccc(C(F)(F)F)c3)o2)C(=O)Cc2ccc(F)cc2)c2cc(OCCCO)ccc2N1C(=O)Cc1ccc(OC)cc1 (stereo partly drawn)")
"-0.307 (inactive)"
>>> result("O=C1O[C@@H](c2ccccc2)[C@@H](c2ccccc2)N2[C@@H](c3ccc(OCCO)cc3)[C@]3(C(=O)Nc4ccccc43)[C@@H](C(=O)NC[C@H](O)c3ccccc3)[C@H]12")
"1.85 (inactive)"
>>> result("COC(=O)[C@@]1(Cc2ccccc2)[C@H]2c3cc(C(=O)N4CCCC4)n(Cc4nc5ccccc5[nH]4)c3C[C@H]2CN1C(=O)c1ccccc1")
"0.541 (inactive)"
>>> result("C=CC[C@]12N=C(c3ccc(OCCCO)cc3)O[C@H]1c1ccccc1N(Cc1ccccc1)C2=O")
"27.9 (active)"
>>> result("COc1ccc(CCN2C(=O)[C@@]3(c4ccc([N+](=O)[O-])cc4)CC(=O)N(C4CCCCC4)[C@@H]3c3ccc(CO)cc32)cc1")
"-0.0259 (inactive)"
>>> result("[N-]=[N+]=Nc1ccccc1C[C@]1(C(=O)NCC(O)CO)N=C(c2ccc(OCCCO)cc2)O[C@H]1c1ccccc1N=[N+]=[N-] (stereo partly drawn)")
"29 (active)"
>>> result("C=C(COC)/C(=C/C[C@@H](OC(C)=O)c1ccc(CO)o1)c1cnc2ccccc2c1")
"0.759 (inactive)"
>>> result("C[C@@H]1ON(c2cccc(C(=O)OC(C)(C)C)c2)[C@H](c2ccc(Br)cc2)[C@H]1C(=O)N1C(=O)OC[C@H]1Cc1ccccc1")
"0.488 (inactive)"
